# Test system: Leishmania donovani
# Assay text: Leishmania intramacrophage assay
# Assay type: functional, organism-based
# Set-up: scale not given: in the data most compounds retested in dose-response had high values
# Condition summary: 30 µM
Hit rate of the full screen: of about 69,000 compounds, about 1,000 (1.4%) showed an effect of 50% or more. This is one part of a sample in which strong results are shown more often than they occur.
Decide by Percent Effect: equal to or exceeding 30% means True, less means False.

Molecule	Group label
CCc1nnc2n1CCN(C(=O)c1nc(-c3ccco3)sc1C)C2	False
COC(=O)C(NC(=O)CC(C)C)c1cc(F)ccc1F (stereo not drawn)	False
c1cnn(CC2CN(c3ncnc4[nH]ccc34)CCO2)c1 (stereo not drawn)	False

Q: Reported Percent Effect reaches at least 30% for COc1ncccc1NC(=O)N(Cc1ccco1)C1CC1 ?
A: False

Q: Reported Percent Effect reaches at least 30% for COC(=O)C(NC(=O)C1CCCC1)c1cc(F)ccc1F (stereo not drawn) ?
A: False

Q: Reported Percent Effect reaches at least 30% for CS(=O)(=O)NC1CCCN(C(=O)Nc2cccnc2)C1 (stereo not drawn) ?
A: False

###

# Tested on: Leishmania donovani
# Assay text: Leishmania intramacrophage assay
# Format: functional, organism-based
# Set-up: scale not given: in the data most compounds retested in dose-response had high values
# Condition summary: 30.3 µM; […]
In all, about 69,000 compounds went through this assay and about 1,000 (1.4%) showed an effect of 50% or more. Many of the other results were omitted from the sample, so strong results are more common in it than they were.
Value kind: Percent Effect

Illustrative cases are given below, each with its answer.
Compound	Percent Effect
CC(C(=O)N1CCCCC1)N1CCN(c2ncc(Cl)cn2)CC1 (centres undefined)	6.463%
Cc1ccnn1CCC(=O)N1CCCC1c1cc2cccnc2[nH]1.Cl (centres undefined)	-28.4%
Cc1nc(C)n(CCNC2CCN(c3ncnc4c(C)csc34)CC2)n1	-18.48%

Continue with the compound presented below.
According to the records, this compound Cc1cnc(N2CC[C@H]3[C@@H]2CCC(=O)N3c2ccccc2)nc1.O=C(O)C(F)(F)F displays Percent Effect of 39.44%

###

Readings of Percent Effect for the listed compounds
# Tested on: Leishmania donovani
# Assay text: Leishmania intramacrophage assay
# Assay type: functional, organism-based
# Parameters: scale not given: in the data most compounds retested in dose-response had high values
# Condition summary: 30.3 µM; […]
The whole screen tested about 69,000 compounds, of which about 1,000 (1.4%) showed an effect of 50% or more. The full list was thinned out, with strong results kept by preference.
Give the value in % but do not write % after it.

Illustrative cases are given below, each with its answer.
Compound	Percent Effect (%)
O=C(O)C(F)(F)F.O=S(=O)(N[C@@H]1CCO[C@]2(CCN(CC3CCOCC3)C2)C1)C1CC1	12.64
Cc1cc(N2CCc3c(ncn3C)C2)n2nc(C(F)(F)F)nc2n1	17.99

Continue with the compound presented below.
Leishmania donovani data for Cc1cccc(CN2CCc3ncnc(N4CCCC4)c3CC2)n1.O=C(O)C(F)(F)F ; its Percent Effect: 43.68

###

Readings of Percent Effect for the listed compounds
# System: Leishmania donovani
# Assay text: Leishmania intramacrophage assay
# Assay type: functional, organism-based
# Parameters: scale not given: in the data most compounds retested in dose-response had high values
# Condition summary: 30.3 µM; […]
Hit rate of the full screen: of about 69,000 compounds, about 1,000 (1.4%) showed an effect of 50% or more. Shown is part of a subset that was picked to be rich in strong results.
Give the value in % but do not write % after it.

Illustrative cases are given below, each with its answer.
Compound	Observed measurement
O=C(NCC1(O)CCC1)c1cccc(-n2cccn2)c1	0.6562
CN(Cc1cnn(C)c1)C(=O)Cc1ccc2c(c1)OCCO2	1.956
CCN(Cc1ccoc1)C(C(N)=O)c1cccc(Br)c1 (configuration not stated)	23.25

Continue with the compound presented below.
According to the records, this compound CCNC(=O)[C@@H]1C[C@@H](N)CN1Cc1ccc(Sc2ccc(C)cc2)o1 displays Percent Effect of 97.85
